Experiment Notes: Single dose pharmacokinetics of VRx-3996 in patients, serum, cycle 1 day 1
Type: in vivo, humans
Measurement Parameters: human, po, Treatment C = 10 mg VRx-3996 p.o. and 900 mg Valganciclovir p.o., single dose, N=6, read-out: Tmax, median (range)
Protocol: Patients enrolled in study were administered oral nanatinostat and valganciclovir at predefined doses. […] 8.1 software.
Measured Parameter: Tmax (h)
Unit h implied. Number only.

Query string: If you can, please state the reported Tmax value of O=C(NO)c1cnc(N2CC3C(C2)C3NCc2ccc3cc(F)ccc3n2)nc1 (stereo not shown) .
Result string: 1

* * *

Experimental Target: HDAC11 (Homo sapiens, UniProt Q96DB2)
Sequence (Q96DB2 1-347): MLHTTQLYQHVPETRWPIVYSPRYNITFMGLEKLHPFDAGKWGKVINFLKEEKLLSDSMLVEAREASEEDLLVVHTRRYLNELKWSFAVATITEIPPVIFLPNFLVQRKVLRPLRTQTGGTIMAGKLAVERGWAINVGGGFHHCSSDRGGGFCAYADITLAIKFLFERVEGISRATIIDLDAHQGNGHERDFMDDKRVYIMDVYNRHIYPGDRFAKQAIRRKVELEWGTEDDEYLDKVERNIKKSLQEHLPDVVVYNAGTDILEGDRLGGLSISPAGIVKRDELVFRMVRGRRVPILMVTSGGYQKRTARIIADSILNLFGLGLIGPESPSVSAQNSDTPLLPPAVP
Measured Parameter: IC50
Kindly format the answer as number then unit.

Query string: If you can, please state the reported IC50 value of O=C(NO)c1cnc(N2CC3C(C2)C3NCc2ccc3cc(F)ccc3n2)nc1 (stereo not shown) .
Result string: 2.8 µM

Where these numbers come from: patent US20240058347A1
